- target-under-test: OTU domain-containing protein 3 (Homo sapiens) (UniProt Q5T2D3)
- Sequence (Q5T2D3 whole entry, looked up, the tested form may be a part): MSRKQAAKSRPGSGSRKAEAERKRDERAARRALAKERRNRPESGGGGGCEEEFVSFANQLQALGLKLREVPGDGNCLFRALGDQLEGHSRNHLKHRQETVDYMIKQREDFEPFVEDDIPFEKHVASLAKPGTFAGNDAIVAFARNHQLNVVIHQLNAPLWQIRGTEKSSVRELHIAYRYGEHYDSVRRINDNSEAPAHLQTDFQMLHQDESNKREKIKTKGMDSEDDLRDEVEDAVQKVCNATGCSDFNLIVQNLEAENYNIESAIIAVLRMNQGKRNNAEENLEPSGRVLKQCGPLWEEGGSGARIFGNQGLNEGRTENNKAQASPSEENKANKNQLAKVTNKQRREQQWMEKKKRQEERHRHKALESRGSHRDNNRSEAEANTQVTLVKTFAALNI
- assay-explanation: Validation of screening hits, potency titration, in vitro enzymatic, OTU domain-containing protein 3 DUB inhibitors (AID 1645868)
- condition-description: purified OTUD3, ubiquitin-rhodamine cleavage fluorescence, 2 h
The source made the active and inactive calls.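 How the source made its calls: active means maximal percent inhibition of the deubiquitinase OTUD3 of at least 30% across the tested doses; inactive means the rest.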
Possible outcomes: Y for active, N for inactive

>>> group("COc1ccc(CCNC(=O)[C@H](CCSC)NC(=O)N2CCn3c2nc2ccccc23)cc1OC")
"N"
>>> group("O=S1(=O)CCN(Cc2ccccc2)c2c(F)nc(N3CCCCC3)c(F)c21")
"N"
>>> group("c1ccc(-c2noc(-c3cc(-c4ccncc4)nc4ccccc34)n2)nc1")
"N"
>>> group("Cc1cc(C(=O)Nc2cc(C)n(Cc3ccc(Cl)cc3)n2)no1")
"N"
>>> group("COc1cc(C(=O)Nc2ccc(-c3csc(C)n3)cc2)cc(OC)c1OC")
"N"
>>> group("COc1ccc(CCNc2c(-c3ccccc3O)nc3cnccn23)cc1OC")
"N"
>>> group("O=C(CNC(=O)OCc1ccccc1)Nc1ccc(Br)cc1C(=O)c1ccccc1Cl")
"Y"
>>> group("Cc1ccc2c(c1)N(C)C(=O)c1cc(NC(=O)c3ccc(F)cc3)ccc1O2")
"Y"
>>> group("Cn1c(SCCOc2ccc(Cl)cc2)nnc1-c1ccc2c(c1)OCCO2")
"N"
>>> group("CNC(=O)c1cc2nc(N(C)C)n(-c3ccccc3)c2s1")
"N"

* * *

- target-under-test: OTU domain-containing protein 3 (Homo sapiens)
- assay-explanation: Validation of screening hits, potency titration, in vitro enzymatic, OTU domain-containing protein 3 DUB inhibitors (AID 1645868)
- condition-description: purified OTUD3, ubiquitin-rhodamine cleavage fluorescence, 2 h
Active and inactive are the calls of the source.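 The calls were made as follows: active = maximal percent inhibition of the deubiquitinase OTUD3 of at least 30% across the tested doses; inactive = the rest.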
reported-endpoint: IC50

>>> assay_value("COc1ccccc1OCc1ccc(C(=O)Nc2ccc(F)cc2C)cc1")
"> 50 µM (inactive)"
>>> assay_value("CCCC[C@@H](C)/C=C(C)/C=C(\\C)C(=O)NC1=C[C@](O)(/C=C/C=C/C=C/C(=O)NC2=C(O)CCC2=O)[C@@H]2O[C@@H]2C1=O")
"3.28 µM"
>>> assay_value("Cc1ccccc1OCCSc1nc2ccccc2n1CC(=O)NC1CC1")
"25.4 µM"
>>> assay_value("Cc1ccc(Cn2c(=O)c3ccccc3n3c(CCC(=O)N4CCN(c5ccccn5)CC4)nnc23)cc1")
"9.18 µM"
>>> assay_value("CCOc1ccc(NC(=O)Cn2c(=O)n(CCC(=O)NCc3ccccc3OC)c(=O)c3ccccc32)cc1")
"15.4 µM"
>>> assay_value("Cc1ccc(CNC(=O)CCCn2c(=O)c3sccc3n(CC(=O)Nc3cc(Cl)ccc3C)c2=O)cc1")
"9.57 µM"
>>> assay_value("Cc1nc(Nc2ncc(C)s2)cc(C2CN(C(=O)Cc3ccccc3)CCO2)n1 (centres undefined)")
"> 50 µM (inactive)"
>>> assay_value("O=C(Nc1ccccc1)C1CCCN(C(=O)c2cc3ccccc3[nH]2)C1 (centres undefined)")
"43.2 µM"
>>> assay_value("CCCc1nc2sc3c(NCCN4CCOCC4)ncnc3c2c2c1CCC2")
"> 50 µM (inactive)"

* * *

- target-under-test: OTU domain-containing protein 3 (Homo sapiens) (UniProt Q5T2D3)
- assay-explanation: Validation of screening hits, potency titration, in vitro enzymatic, OTU domain-containing protein 3 DUB inhibitors (AID 1645868)
- condition-description: purified OTUD3, ubiquitin-rhodamine cleavage fluorescence, 2 h
The source made the active and inactive calls.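 The calls were made as follows: active = maximal percent inhibition of the deubiquitinase OTUD3 of at least 30% across the tested doses; inactive = the rest.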
Possible outcomes: yes = active, no = inactive

>>> group("COc1cccc(NC(=O)Nc2nccn(-c3ccc(F)cc3)c2=O)c1")
"yes"
>>> group("Fc1ccc(CSc2nnc(-c3ccccn3)n2Cc2ccco2)cc1")
"no"
>>> group("COc1ccc(NC(=O)CC(=O)c2ccc([N+](=O)[O-])cc2)cc1S(=O)(=O)Nc1ccc(Cl)cc1")
"yes"
>>> group("COc1ccccc1-c1nc2c3c(C)c(C)n(-c4ccc(Br)cn4)c3ncn2n1")
"no"
>>> group("CCOC(=O)c1cc2c(ccn2C)n1Cc1cccc2ccccc12")
"no"
>>> group("Cc1c(C(=O)NCc2cccc(Br)c2)oc2c1-c1[nH]ncc1CC2")
"yes"
>>> group("CNC(=O)c1cc2c(=O)n3cccc(C)c3nc2n1Cc1ccccc1")
"no"
>>> group("CC(=O)Nc1ccc(O)c(-c2nc3cc(C)ccc3o2)c1")
"no"
>>> group("O=C(/C=C/c1ccccc1)N1CCN(C2=NS(=O)(=O)c3ccccc32)CC1")
"no"
>>> group("Cc1sc(NC(=O)CN2CCc3ccccc3C2)nc1-c1ccc2c(c1)CCN2C(=O)C1CCCCC1")
"no"
>>> group("CC1CCc2sc(NC(=O)c3ccccc3Oc3ccccc3)c(C(N)=O)c2C1 (stereo not given)")
"yes"
>>> group("Cc1ccc(NC(=O)Cn2c(Nc3cccc(C)c3)nc(C)cc2=O)cc1")
"yes"
>>> group("CCOc1ccc(-n2c(C)cc(/C=C(\\C#N)c3nc4ccccc4[nH]3)c2C)cc1")
"no"
>>> group("CN1C(=O)[C@@]23C[C@]4([C@@]56C[C@]78SS[C@](CO)(C(=O)N7[C@@H]5Nc5ccccc56)N(C)C8=O)c5ccccc5N[C@@H]4N2C(=O)[C@]1(CO)SS3")
"no"
>>> group("Cc1ccccc1OCCC(=O)Nc1cccc(S(=O)(=O)Nc2ccccc2Cl)c1")
"no"
>>> group("Cc1ccc(-n2c(-c3ccccc3)cn3c4c(=O)[nH]c(=O)n(C)c4nc23)cc1Cl")
"no"
>>> group("CC(C)Cc1nc2sc3c(NCc4ccccc4)ncnc3c2c2c1COC(C)(C)C2")
"yes"
>>> group("CCc1nc(SCC(=O)Nc2ccccc2Cl)c2oc3ccccc3c2n1")
"yes"
>>> group("O=C(O)c1ccccc1C(=O)Nc1ccc(SC(C(=O)Nc2cccc(Cl)c2)c2ccccc2)cc1 (stereo not given)")
"yes"
>>> group("Cc1nc(SCC#N)c2oc3ccccc3c2n1")
"no"

* * *

- target-under-test: OTU domain-containing protein 3 (Homo sapiens) (UniProt Q5T2D3)
- assay-explanation: Validation of screening hits, potency titration, in vitro enzymatic, OTU domain-containing protein 3 DUB inhibitors (AID 1645868)
- condition-description: purified OTUD3, ubiquitin-rhodamine cleavage fluorescence, 2 h
Active and inactive are the calls of the source.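 How the source made its calls: active means maximal percent inhibition of the deubiquitinase OTUD3 of at least 30% across the tested doses; inactive means the rest.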
Possible outcomes: active, inactive

>>> group("CSc1nc(Cc2ccc(Cl)cc2)nc2ccccc12")
"inactive"
>>> group("CCOC(=O)c1cccc(NC(=O)Nc2cccn3nc(C)nc23)c1")
"inactive"
>>> group("CCc1noc(Cn2cnc3c4ccccc4n(CC(=O)NC4CCCCC4)c3c2=O)n1")
"inactive"
>>> group("COc1ccc(-n2nnc3c(SCC(=O)Nc4cc(C)on4)ncnc32)cc1")
"inactive"
>>> group("COc1ccc(NC(=O)Cn2cc(C(=O)c3ccc(C)cc3)c(=O)c3ccccc32)cc1")
"active"
>>> group("Cc1ccc(Nc2nc(O)c(CC(=O)Nc3ccccc3C)s2)cc1C")
"active"
>>> group("CCc1ccc(C(C)NC(=O)C2CCN(c3ccc4nncn4n3)CC2)cc1 (stereo not given)")
"inactive"
>>> group("Cc1ccc(NC(=O)c2sc3ncn(CC(=O)N4CCN(c5ccccn5)CC4)c(=O)c3c2C)c(Br)c1")
"active"
>>> group("O=C(NCc1nc(-c2ccc3c(c2)[nH]c(=O)n3C2CCCC2)no1)c1ccccc1")
"inactive"
>>> group("O=C(O)Cc1ccc(Nc2nc3ccccc3n3nnnc23)cc1")
"inactive"

* * *

- target-under-test: OTU domain-containing protein 3 (Homo sapiens)
- assay-explanation: Validation of screening hits, potency titration, in vitro enzymatic, OTU domain-containing protein 3 DUB inhibitors (AID 1645868)
- condition-description: purified OTUD3, ubiquitin-rhodamine cleavage fluorescence, 2 h
Active and inactive are the calls of the source.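 The calls were made as follows: active = maximal percent inhibition of the deubiquitinase OTUD3 of at least 30% across the tested doses; inactive = the rest.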
Possible outcomes: active, inactive

>>> group("O=C(Cc1c[nH]c2ccccc12)Nc1nc2ccccc2s1")
"inactive"
>>> group("COc1cccc(NC(=O)Nc2ccc3nc4n(c(=O)c3c2)CCCC4)c1")
"inactive"
>>> group("COc1cc2c(cc1OC)-c1cc(NCc3cc(OC)c(OC)c(OC)c3)nc(=O)n1CC2")
"inactive"
>>> group("CCOc1ccc(S(=O)(=O)Nc2ccc[nH]c2=O)cc1")
"inactive"
>>> group("CC1CCN(c2nc(F)c3c(c2F)S(=O)(=O)CCN3Cc2cccnc2)CC1")
"inactive"
>>> group("CC(C)(C)c1cc(CCC(=O)Nc2c3c(nc4c2CCC4)CCCC3)cc(C(C)(C)C)c1O")
"inactive"
>>> group("CO[C@H]1CC[C@H](O)c2c1oc1c3c4c(c(O)c1c2=O)-c1c(cc2c(Cl)c(C)n(N)c(=O)c2c1O)C[C@@H]4OCO3")
"active"
>>> group("Cc1ccc2c(c1)c(=O)c(C(=O)c1ccccc1)cn2CC(=O)Nc1ccc2c(c1)OCCO2")
"active"
>>> group("COCCN(C1CCN(CCc2ccc(Cl)cc2)CC1)S(=O)(=O)c1cccc2cccnc12")
"inactive"
>>> group("CCn1cc(-c2nc(-c3ccccc3)no2)c(=O)c2cc(F)ccc21")
"active"
>>> group("O=C(COC(=O)CCc1ccc(S(=O)(=O)N2CCOCC2)cc1)Nc1ccc2c(c1)OCCO2")
"inactive"
>>> group("CCOC(=O)c1ccc(NC(=O)c2cnc(N3CCOCC3)nc2)cc1")
"inactive"
>>> group("CCC(=O)OCc1cnc(C)c2oc(=O)c(-c3nc(-c4ccccc4)no3)cc12")
"inactive"
>>> group("CCN1C[C@@H]2C[C@]2(c2ccccc2OC)C(=O)c2ncccc21")
"inactive"
>>> group("CC(C)NS(=O)(=O)c1ccc(OCC(=O)N2CCC(Cc3ccccc3)CC2)cc1")
"inactive"
>>> group("CCN(CC)C(=O)CN1CCCC(c2ncncc2-c2cc(C)no2)C1 (stereo not given)")
"inactive"
>>> group("Cc1cc(C(F)(F)F)n(-c2ccc(NC(=O)Nc3cccc(C(F)(F)F)c3)cc2)n1")
"active"
>>> group("CCCn1c(=O)n(CC(=O)c2ccccc2F)c2c(C(N)=O)nc(-c3ccco3)nc21")
"inactive"
>>> group("COc1ccc(NC(=O)CSc2oc(-c3ccc(C)cc3)nc2S(=O)(=O)c2ccc(Br)cc2)c(OC)c1")
"inactive"
>>> group("CC(C)c1nc2sc3c(NCc4ccco4)ncnc3c2c2c1CCC2")
"inactive"
>>> group("O=C(c1cc(Cl)ccc1Cl)N1CCN(c2ccc3nnc(-c4ccco4)n3n2)CC1")
"inactive"
>>> group("O=C1CN(C(=O)COC(=O)CCCN2C(=O)c3cccc4cccc(c34)C2=O)c2ccccc2N1")
"inactive"
>>> group("COc1ccc(/C=C/C(=O)Nc2c3c(nc4c2CCC4)CCCC3)cc1")
"active"
>>> group("Cc1ccc(C)c(CSC2=NCCN2C(=O)c2ccco2)c1")
"inactive"
>>> group("CCc1nc(-c2cccc(NC(=O)c3ccc(C#N)cc3F)c2)no1")
"inactive"
>>> group("O=C(CCCc1c[nH]c2ccccc12)Nc1ccc2c(c1)OCCO2")
"inactive"
>>> group("COc1ccc(OC)c(-n2c(SCC(=O)N3CCc4ccccc43)nnc2-c2cccc(S(=O)(=O)N(C)C)c2)c1")
"inactive"
>>> group("O=C(COC(=O)c1ccc(Cl)cc1)Nc1ccc2[nH]c(=O)[nH]c2c1")
"active"
>>> group("COc1ccc(NC(=O)c2nnc(C(=O)NCCN3CCCCCC3)s2)cc1")
"active"
>>> group("CCOc1ccc(NC(=O)Cn2c(=O)n(CCCCCC(=O)NCc3ccc(F)cc3)c(=O)c3sccc32)cc1")
"active"
>>> group("Cc1ccc([N+](=O)[O-])cc1S(=O)(=O)Nc1cc2sc(=O)oc2c2ccccc12")
"active"
>>> group("COc1cccc(N2CCN(C(=O)c3cc(NC(C)=O)cc4nc(C)ccc34)CC2)c1")
"inactive"
>>> group("CCc1cc(C(=O)c2ccc(OC)cc2)c(NC(=O)CN2CCCCC2)s1")
"inactive"
>>> group("O=C(CN1CCCCC1)Nc1nnc(-c2ccc([N+](=O)[O-])cc2)s1")
"active"
>>> group("Cc1ccccc1C(=O)OCCN1C(=O)c2cccc3c(N4CCOCC4)ccc(c23)C1=O")
"inactive"
>>> group("Cn1c2ccccc2c(=O)c2c(=O)n(Cc3ccccc3)c(-c3ccco3)nc21")
"active"
>>> group("COc1cccc(NC(=O)C2CCN(C(=O)c3cc(-c4cccnc4)n[nH]3)CC2)c1")
"inactive"
>>> group("NS(=O)(=O)c1cc(C(=O)OCC(=O)c2ccc3c(c2)OCCO3)ccc1Cl")
"inactive"
>>> group("O=C(COc1ccc(F)cc1)Nc1cc(F)c2nc(N3CCOCC3)ccc2c1")
"inactive"
>>> group("Cc1cc(O)cc2cc3c(c(O)c12)C(=O)CCC3O (stereo not given)")
"inactive"
